# viability, T/C values compiled below
# Tested on: 276233-004-R-J1-PDC spheroids with HUVEC/MSC, viability;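 note: spheroids exposed to drugs for seven days before the viability read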
# Experiment Description: Anticancer human tumor 276233-004-R-J1-PDC patient-derived colon adenocarcinoma cell line growth inhibition [TAK]
# Measurement Context: second compound 9.49 µM; first compound 1 µM; active compounds read low
Measured Attribute: viability, T/C (%)

| Molecule | Measured Attribute | Unit Name | Recorded Measurement |
| --- | --- | --- | --- |
| COc1c(OCCCN2CCOCC2)ccc2c3n(c(=NC(=O)c4cnc(N)nc4)nc12)CCN3 + CC(C)NCC(C(=O)N1CCN(c2ncnc3c2C(C)CC3O)CC1)c1ccc(Cl)cc1 | viability, T/C | % | 38.4 |
| CCCS(=O)(=O)Nc1ccc(F)c(C(=O)c2c[nH]c3ncc(-c4ccc(Cl)cc4)cc23)c1F + CC(C)NCC(C(=O)N1CCN(c2ncnc3c2C(C)CC3O)CC1)c1ccc(Cl)cc1 | viability, T/C | % | 70 |
| Cc1nc(NC(=O)N2CCCC2C(N)=O)sc1-c1ccnc(C(C)(C)C(F)(F)F)c1 (centres undefined) + CC(C)NCC(C(=O)N1CCN(c2ncnc3c2C(C)CC3O)CC1)c1ccc(Cl)cc1 | viability, T/C | % | 55.8 |
| CC(C)(C)c1nc(-c2cccc(NS(=O)(=O)c3c(F)cccc3F)c2F)c(-c2ccnc(N)n2)s1 + CC(C)NCC(C(=O)N1CCN(c2ncnc3c2C(C)CC3O)CC1)c1ccc(Cl)cc1 | viability, T/C | % | 64.7 |
